Value source: ChEMBL document CHEMBL1140332

- TESTED TARGET: Neutrophil elastase (Homo sapiens) (UniProt P08246)
- Sequence (P08246 whole entry): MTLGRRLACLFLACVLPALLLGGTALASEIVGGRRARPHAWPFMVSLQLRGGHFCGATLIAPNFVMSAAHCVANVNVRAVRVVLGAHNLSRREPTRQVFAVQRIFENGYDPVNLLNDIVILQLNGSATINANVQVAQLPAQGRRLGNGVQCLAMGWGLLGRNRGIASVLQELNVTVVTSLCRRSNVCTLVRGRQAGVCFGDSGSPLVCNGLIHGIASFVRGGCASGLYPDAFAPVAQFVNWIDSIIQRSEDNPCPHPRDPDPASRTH
- ASSAY NAME: Second order rate constant for inhibition of Human leukocyte elastase (major diastereomeric pair of enantiomer)
READOUT KIND: k obs / 1

Some solved cases for reference:
CCC1(CC)C(=O)N(C2OC(=O)N(C(=O)[n+]3ccc(OC)cc3)C2=O)C1S(=O)(=O)c1ccccc1 (stereo not given) | 43.2 1/M 1/s
CCC1(CC)C(=O)N(COC(=O)Nc2ccc(OC)cc2)C1S(=O)(=O)c1ccccc1 (stereo not given) | 100 1/M 1/s
CCC1(CC)C(=O)N(C2OC(=O)N(Cc3ccccc3)C2=O)C1Oc1ccccc1 (stereo not given) | 115 1/M 1/s
CCOC(=O)C(OC(=O)c1ccc(OC)cc1)N1CC(CC)(CC)C1=O (stereo not given) | 10.7 1/M 1/s
CCC1(CC)CN(C2OC(=O)N(Cc3ccccc3)C2=O)C1=O (stereo not given) | 23.9 1/M 1/s

I would be grateful if you could share the reported k obs / 1 for CCC1(CC)C(=O)N(C2OC(=O)N(Cc3ccccc3)C2=O)C1S(=O)(=O)c1ccccc1 (stereo not given) .
68.5 1/M 1/s

Entry under review: CCOC(=O)C(OC(=O)NCc1ccccc1)N1C(=O)C(CC)(CC)C1Oc1ccccc1 (stereo not given) . Reported k obs / 1?
38.2 1/M 1/s

Name the recorded k obs / 1 for CCOC(=O)C(OC(=O)c1ccc(OC)cc1)N1C(=O)C(CC)(CC)C1Sc1nc2ccccc2o1 (stereo not given) .
12.9 1/M 1/s

// k obs / 1 lookup, key: CCOC(=O)C(OC(=O)NC(=O)[n+]1ccccc1C(=O)OC)N1C(=O)C(CC)(CC)C1S(=O)(=O)c1ccccc1 (stereo not given)
26.6 1/M 1/s

Item CCC1(CC)C(=O)N(C(=O)NCc2ccccc2)C1Oc1ccc(C(=O)O)cc1 (stereo not given) has what recorded k obs / 1?
1500 1/M 1/s
